Data provenance: the supplement of paper PMC13380429

Please respond with reported relative viability EC50 for every item in the list.
- System: Vero E6
- ASSAY_NAME: relative viability EC50 (midpoint between 100% and the lowest measured viability); higher = less toxic
- TEST_CONDITIONS: 72 h

These recorded examples may help you get a feel for the data.
CN(C)c1cccc(Oc2cnc(Nc3cccc(O)c3)nc2)c1
> 10 µM
Cn1cc(-c2ccc3nnc(Sc4ccc5ncccc5c4)n3n2)cn1
> 10 µM
Cc1ccc(-c2ccc(F)cc2COc2ccc(CCC(=O)O)cc2)cc1
> 10 µM
CCN(CC)Cc1ccc(C(=O)N(CCc2ccccc2OC)[C@@H]2CCNC2)cc1
> 10 µM

Give one value of relative viability EC50 per listed molecule.
1. Nc1ccn(C[C@@H](CO)OCP(=O)(O)O)c(=O)n1
2. O=C(NC[C@H](O)CN1CCc2ccccc2C1)c1cc(NC2COC2)ncn1

> 10 µM
> 10 µM

Could you tell me relative viability EC50 for each of these molecules? They are listed below.
1. CC(=O)NCCCS(=O)(=O)O [acamprosate]
2. NCCCCN=C(N)N
3. COc1ccc(C2CNC(=O)NC2)cc1O[C@H]1C[C@@H]2CC[C@H]1C2
4. C[C@H](Nc1cc(-c2cnn(C)c2)cc(Nc2cnccn2)n1)c1ccc(F)cc1

1. > 10 µM
2. > 10 µM
3. > 10 µM
4. 1.76 µM
